Values compiled from ChEMBL document CHEMBL5303573.

- conditions: bacteroides thetaiotaomicron, 12 h, 2 µM
- Description: The drug is tested on Bacteroides thetaiotaomicron strain: VPI-5482 for biotransformation. The drug concentrations were measured before and after a 12-h incubation by liquid-chromatography-coupled mass spectrometry (LC–MS)
property: Bacterial Biotransformation

NS(=O)(=O)c1cc2c(cc1Cl)N=C(CSCc1ccccc1)NS2(=O)=O [BENZTHIAZIDE]    Compound NOT metabolized
Nc1c2c(nc3ccccc13)CCCC2 [TACRINE]    Compound NOT metabolized
CCCC1O[C@@H]2C[C@H]3[C@@H]4CCC5=CC(=O)C=C[C@]5(C)[C@H]4[C@@H](O)C[C@]3(C)[C@]2(C(=O)CO)O1 (some centres undefined) [BUDESONIDE]    Compound metabolized
CNC(=C[N+](=O)[O-])NCCSCc1csc(CN(C)C)n1 [NIZATIDINE]    Compound NOT metabolized
OC(Cn1cncn1)(Cn1cncn1)c1ccc(F)cc1F [FLUCONAZOLE]    Compound metabolized

Request: Tell me the measured Bacterial Biotransformation of CCC(C)n1ncn(-c2ccc(N3CCN(c4ccc(OCC5COC(Cn6cncn6)(c6ccc(Cl)cc6Cl)O5)cc4)CC3)cc2)c1=O (centres undefined) [ITRACONAZOLE] , please.
Response: Compound NOT metabolized

Request: Tell me the measured Bacterial Biotransformation of N[C@@H](Cc1ccc(N(CCCl)CCCl)cc1)C(=O)O , please.
Response: Compound metabolized

Request: Tell me the measured Bacterial Biotransformation of COc1ccccc1N1CCN(CC(O)COc2cccc3ccccc23)CC1 (centres undefined) [NAFTOPIDIL] , please.
Response: Compound NOT metabolized

Request: Tell me the measured Bacterial Biotransformation of CC(NC(C)(C)C)C(=O)c1cccc(Cl)c1 (centres undefined) [BUPROPION] , please.
Response: Compound NOT metabolized
